# system_tested: T1, Murine RANK-Fc (mouse, UniProt O35305 31-214)
# T1 sequence (looked up): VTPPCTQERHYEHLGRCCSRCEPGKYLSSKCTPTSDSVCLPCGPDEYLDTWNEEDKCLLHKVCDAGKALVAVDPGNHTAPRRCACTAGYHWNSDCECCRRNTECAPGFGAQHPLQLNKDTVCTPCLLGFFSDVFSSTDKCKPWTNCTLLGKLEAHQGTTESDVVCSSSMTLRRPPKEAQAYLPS
# assay_text: SPR
observation_type: koff (s⁻¹)
API: value field is a number in s⁻¹; no unit string.

// recorded koff for RANKL_Q236H (ligand, mouse, UniProt O35235 160-316, looked up) EAQPFAHLTINAASIPSGSHKVTLSSWYHDRGWAKISNMTLSNGKLRVNQDGFYYLYANICFRHHETSGSVPTDYLHLMVYVVKTSIKIPSSHNLMKGGSTKNWSGNSEFHFYSINVGGFFKLRAGEEISIQVSNPSLLDPDQDATYFGAFKVQDID : 0.00013

// recorded koff for RANKL_Q236K (ligand, mouse, UniProt O35235 160-316, looked up) EAQPFAHLTINAASIPSGSHKVTLSSWYHDRGWAKISNMTLSNGKLRVNQDGFYYLYANICFRHHETSGSVPTDYLKLMVYVVKTSIKIPSSHNLMKGGSTKNWSGNSEFHFYSINVGGFFKLRAGEEISIQVSNPSLLDPDQDATYFGAFKVQDID : 0.00095

// recorded koff for RANKL_Q236D (ligand, mouse, UniProt O35235 160-316, looked up) EAQPFAHLTINAASIPSGSHKVTLSSWYHDRGWAKISNMTLSNGKLRVNQDGFYYLYANICFRHHETSGSVPTDYLDLMVYVVKTSIKIPSSHNLMKGGSTKNWSGNSEFHFYSINVGGFFKLRAGEEISIQVSNPSLLDPDQDATYFGAFKVQDID : 9e-05
